# System: Escherichia coli (E. coli—ATCC #10536)
# measurementNotes: Automated assessment of efficacy in model surfactant base (2.85% sodium cocoyl glycinate + 1.85% sodium lauroamphoacetate, pH 10), 15 seconds exposure, OD450/OD590 readout
# Type: cell-based
# studyConditions: component alone at 0.175% w/v; model surfactant solution
The compounds listed here are annotated with their Δ OD 450 nm = OD450 (time = 16 hours) - OD450 (time zero), Mean.
testReadout: Δ OD 450 nm = OD450 (time = 16 hours) - OD450 (time zero), Mean

>>> measurement("CC(C)(C)c1ccccc1O")
"−1.08"
>>> measurement("CCC(C)c1ccc(O)cc1 (stereo not shown)")
"−0.54"
>>> measurement("CCCc1ccccc1O")
"−0.10"
>>> measurement("Cc1ccc(C(C)(C)C)c(O)c1")
"−1.30"

----------
# Tested on: Escherichia coli (E. coli—ATCC #10536)
# measurementNotes: Automated assessment of efficacy in model surfactant base (2.85% sodium cocoyl glycinate + 1.85% sodium lauroamphoacetate, pH 10), 15 seconds exposure, OD450/OD590 readout
# Type: cell-based
# studyConditions: component alone at 0.125% w/v; model surfactant solution
# label = Y if Δ OD 450 nm = OD450 (time = 16 hours) - OD450 (time zero), Mean >= -1 else N

>>> classification("CCCc1ccccc1O")
"N"
>>> classification("CCCc1ccc(O)cc1")
"N"
>>> classification("CC(C)(C)c1cccc(O)c1")
"Y"
>>> classification("CCCc1cccc(O)c1")
"Y"
>>> classification("Cc1ccc(C(C)(C)C)c(O)c1")
"N"
>>> classification("CC(C)(C)c1ccccc1O")
"N"
>>> classification("CCC(C)c1ccc(O)cc1 (stereo not shown)")
"Y"

----------
# System: Escherichia coli (E. coli—ATCC #10536)
# measurementNotes: Automated assessment of efficacy in model surfactant base (2.85% sodium cocoyl glycinate + 1.85% sodium lauroamphoacetate, pH 10), 15 seconds exposure, OD450/OD590 readout
# Format: cell-based
# studyConditions: component alone at 0.125% w/v; model surfactant solution
testReadout: Δ OD 590 nm OD590 (time = 16 hours) - OD590 (time zero), Mean

>>> measurement("Cc1ccc(C(C)(C)C)c(O)c1")
0.32
>>> measurement("CC(C)(C)c1cccc(O)c1")
0.65
>>> measurement("CCCc1ccc(O)cc1")
0.37
>>> measurement("CC(C)(C)c1ccccc1O")
0.30
>>> measurement("CCC(C)c1ccc(O)cc1 (stereo not shown)")
0.60
>>> measurement("CCCc1ccccc1O")
0.54
>>> measurement("CCCc1cccc(O)c1")
0.57

----------
# Tested on: Escherichia coli (E. coli—ATCC #10536)
# measurementNotes: Automated assessment of efficacy in model surfactant base (2.85% sodium cocoyl glycinate + 1.85% sodium lauroamphoacetate, pH 10), 15 seconds exposure, OD450/OD590 readout
# Format: cell-based
# studyConditions: component alone at 0.05% w/v; model surfactant solution
The compounds listed here are annotated with their Δ OD 590 nm OD590 (time = 16 hours) - OD590 (time zero), Mean.
testReadout: Δ OD 590 nm OD590 (time = 16 hours) - OD590 (time zero), Mean

>>> measurement("Cc1cc(O)ccc1C(C)C")
0.25
>>> measurement("Cc1ccc(C(C)(C)C)c(O)c1")
0.29
>>> measurement("CC(C)(C)c1ccccc1O")
0.22
>>> measurement("CCC(C)c1ccccc1O (centres unmarked)")
0.30
>>> measurement("CCCc1ccccc1O")
0.46
